Molecular target: Polyunsaturated fatty acid 5-lipoxygenase (Homo sapiens)
Sequence (P09917 whole entry): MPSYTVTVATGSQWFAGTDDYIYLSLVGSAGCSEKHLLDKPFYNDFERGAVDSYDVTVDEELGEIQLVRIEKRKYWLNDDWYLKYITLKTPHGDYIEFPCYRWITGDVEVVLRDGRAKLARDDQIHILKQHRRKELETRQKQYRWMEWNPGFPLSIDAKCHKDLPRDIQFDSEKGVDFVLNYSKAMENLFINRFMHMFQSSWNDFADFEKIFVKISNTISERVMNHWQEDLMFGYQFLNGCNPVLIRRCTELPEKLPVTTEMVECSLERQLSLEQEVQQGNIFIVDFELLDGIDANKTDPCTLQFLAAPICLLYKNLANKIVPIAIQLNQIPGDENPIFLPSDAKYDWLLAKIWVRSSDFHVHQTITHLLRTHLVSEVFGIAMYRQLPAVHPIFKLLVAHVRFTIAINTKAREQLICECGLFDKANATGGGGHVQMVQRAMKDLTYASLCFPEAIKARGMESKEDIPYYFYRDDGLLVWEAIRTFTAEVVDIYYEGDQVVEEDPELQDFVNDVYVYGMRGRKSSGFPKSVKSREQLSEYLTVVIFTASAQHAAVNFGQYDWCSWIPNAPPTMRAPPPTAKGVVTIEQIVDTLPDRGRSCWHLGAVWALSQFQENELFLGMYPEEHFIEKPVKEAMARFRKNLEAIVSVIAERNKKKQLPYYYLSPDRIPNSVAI
Test: Inhibitory concentration against arachidonic acid 5-lipoxygenation
PARAMETER_MEASURED: IC50 (µM)
Write the answer as a number in µM, unit excluded.

The molecule listed as O=C1c2c(O)cccc2Cc2cccc(O)c21 [ANTHRALIN] has a reported IC50 of 7

====

Biological target: Arachidonate 5-lipoxygenase (Bos taurus)
Sequence (Q9BEG3 whole entry): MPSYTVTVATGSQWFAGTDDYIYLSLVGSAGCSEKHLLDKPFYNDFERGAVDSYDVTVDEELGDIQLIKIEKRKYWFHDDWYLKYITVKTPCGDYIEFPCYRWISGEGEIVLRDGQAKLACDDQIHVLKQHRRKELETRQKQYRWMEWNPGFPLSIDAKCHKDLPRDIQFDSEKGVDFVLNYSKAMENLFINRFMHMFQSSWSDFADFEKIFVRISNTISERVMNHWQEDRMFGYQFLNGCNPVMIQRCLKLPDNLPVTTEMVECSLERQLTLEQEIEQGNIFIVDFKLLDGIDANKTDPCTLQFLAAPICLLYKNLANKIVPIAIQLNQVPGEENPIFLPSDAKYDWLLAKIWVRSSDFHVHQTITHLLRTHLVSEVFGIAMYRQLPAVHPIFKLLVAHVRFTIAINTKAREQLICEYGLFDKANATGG
Assay: Inhibition of 5-lipoxygenase in bovine polymorphonuclear leukocytes
Provide the recorded IC50 for the entries that follow.
Give a bare numeral; the unit µM is implied.

Arachidonate 5-lipoxygenase (Bos taurus) data for `O=C1c2c(O)cccc2Cc2ccc(CCCc3cc(O)c(O)c(O)c3)c(O)c21` ; its IC50: 0.6

Form field IC50 for item `O=C1c2c(O)cccc2Cc2ccc(Cc3cc(O)ccc3O)c(O)c21` on Arachidonate 5-lipoxygenase (Bos taurus): 0.9

// assay Arachidonate 5-lipoxygenase (Bos taurus), entry `O=C1c2c(O)cccc2Cc2cc(Cc3ccc(O)c(O)c3)cc(O)c21` , IC50 value = 2

Entry `O=C1c2c(O)cccc2Cc2cc(Cc3ccc(O)cc3O)cc(O)c21` ; assay system Arachidonate 5-lipoxygenase (Bos taurus); IC50 recorded at 7

====

Experiment: Deoxyribose degradation as a measure of hydroxy radical formation.
Type: functional
PARAMETER_MEASURED: DD (uM of MDA mM-1)
Could you keep your reply to the number by itself?

Quick note, DD (uM of MDA mM-1) for `O=C1c2c(O)cccc2Cc2cc(Cc3ccc(O)c(O)c3)cc(O)c21` landed at 0.41

Noted for `O=C1c2c(O)cccc2Cc2cc(Cc3cc(O)ccc3O)cc(O)c21` : its DD (uM of MDA mM-1) reads 1.74

Value of DD (uM of MDA mM-1) reported for the compound `O=C1c2c(O)cccc2Cc2ccc(Cc3cc(O)ccc3O)c(O)c21` is 1.46

Input `O=C(c1ccccc1)c1cc(O)c2c(c1)Cc1cccc(O)c1C2=O` . Output DD (uM of MDA mM-1): 1.97

Short answer for `O=C1c2c(O)cccc2Cc2ccc(Cc3ccc(O)cc3O)c(O)c21` : DD (uM of MDA mM-1) was 0.34

Memo: `O=C1c2c(O)cccc2Cc2ccc(CCCc3ccccc3)c(O)c21` , reported DD (uM of MDA mM-1): 0.56

Entry `O=C(O)c1ccccc1Cc1ccc2c(c1O)C(=O)c1c(O)cccc1C2` — recorded DD (uM of MDA mM-1) = 1.2

# compound `O=C1c2c(O)cccc2Cc2ccc(Cc3ccc(O)cc3)c(O)c21` ; its DD (uM of MDA mM-1) = 0.38

Consider `O=C1c2c(O)cccc2Cc2ccc(Cc3ccccc3O)c(O)c21` . Its measured DD (uM of MDA mM-1) is 0.35

Value of measured DD (uM of MDA mM-1) for the entry `Cc1ccc(C(=O)c2cc(O)c3c(c2)Cc2cccc(O)c2C3=O)cc1` : 1.01

Short answer for `COc1ccc(C(=O)c2cc(O)c3c(c2)Cc2cccc(O)c2C3=O)cc1` : DD (uM of MDA mM-1) was 0.98

====

Would you mind telling me the reported logP of each entry?
Test: Partition coefficient (logP) (HPLC)
Assay type: physicochemical
Conditions: octanol/water
The reply should be a number, written without any unit.

`COC(=O)c1ccccc1Cc1ccc2c(c1O)C(=O)c1c(O)cccc1C2` has a reported logP of 5.24

So for `COc1ccc(Cc2ccc3c(c2O)C(=O)c2c(O)cccc2C3)cc1` , the logged logP turned out to be 5.62

// field: logP; key: `COc1ccc(OC)c(Cc2ccc3c(c2O)C(=O)c2c(O)cccc2C3)c1` ; value = 5.72

The reported value for `O=C1c2c(O)cccc2Cc2ccc(CCCCc3ccccc3)c(O)c21` in terms of logP is 6.81

Reported logP for `COc1ccc(Cc2ccc3c(c2O)C(=O)c2c(O)cccc2C3)c(OC)c1` was 5.04

logP for `O=C1c2c(O)cccc2Cc2cc(Cc3ccc(O)cc3O)cc(O)c21` is 3.67

GET /value?item= `O=C(c1ccccc1)c1ccc2c(c1O)C(=O)c1c(O)cccc1C2` &field=logP returns 4.47

Sure, the documented logP for `O=C1c2c(O)cccc2Cc2cc(Cc3ccccc3)cc(O)c21` is 5.29

// field: logP; key: `COc1cc(CCCc2ccc3c(c2O)C(=O)c2c(O)cccc2C3)cc(OC)c1OC` ; value = 5.64

Memo: `COc1ccc(Cc2ccc3c(c2O)C(=O)c2c(O)cccc2C3)cc1OC` , reported logP: 5.79

For this molecule ( `O=C1c2c(O)cccc2Cc2ccc(Cc3ccc(C(F)(F)F)cc3)c(O)c21` ), measured logP is 5.92

For record `O=C1c2c(O)cccc2Cc2ccc(Cc3ccccc3O)c(O)c21` the listed logP is 4.67

Reported logP of `O=C1c2c(O)cccc2Cc2ccc(CCCc3cc(O)c(O)c(O)c3)c(O)c21` : 3.96

Reported logP for `O=C1c2c(O)cccc2Cc2ccc(Cc3cc(O)ccc3O)c(O)c21` was 3.33

// `COC(=O)c1ccc(Cc2ccc3c(c2O)C(=O)c2c(O)cccc2C3)cc1` : logP value = 5.34

The molecule `O=C1c2c(O)cccc2Cc2ccc(Cc3ccc(O)cc3O)c(O)c21` showed logP equal to 3.68
